Hey, just so you know, these numbers are from ChEMBL document CHEMBL3045810.

# System: Aspergillus niger
# procedure summary: Fungicidal activity against Aspergillus niger MTCC 3323
# Assay type: functional, organism-based
Activity calls are given as the source filed them. The calls are words filed in the database; no cut-off is given here.
Your reply should match one of these outcome classes. active, inactive

Examples with answers:
mol | label
CCCCN(CCCC)CC(=O)Nn1c(S)nnc1-c1ccc(OC)cc1 | active
CCCN(CCC)CC(=O)Nn1c(S)nnc1-c1ccc(C)cc1 | active
CCN(CC)CC(=O)Nn1c(S)nnc1-c1ccc(C)cc1 | inactive
CCN(CC)CC(=O)Nn1c(S)nnc1-c1ccc(OC)cc1 | inactive

What did this assay record as the result for "CCCCN(CCCC)CC(=O)Nn1c(S)nnc1-c1ccc(C)cc1" ?
active

// repeat for "CCCCCN(CCCCC)CC(=O)Nn1c(S)nnc1-c1ccc(C)cc1" and report
inactive

====

# Tested on: Staphylococcus aureus
# procedure summary: Antibacterial activity against Staphylococcus aureus ATCC 25923 at 50 ug/ml after 24 hr by paper disk diffusion method
# Type: functional
# settings: ATCC 25923, 24 h, read-out: DIZ
# Lookup of reported zone of inhibition at 50 µg/mL keyed by entry
Just the number in mm, nothing appended.

mol | target system | quantitative result
CCCCN(CCCC)CC(=O)Nn1c(S)nnc1-c1ccc(OC)cc1 | Staphylococcus aureus | 15.2
Cc1ccc(-c2nnc(S)n2NC(=O)CN(C(C)C)C(C)C)cc1 | Staphylococcus aureus | 8.2
CCN(CC)CC(=O)Nn1c(S)nnc1-c1ccc(C)cc1 | Staphylococcus aureus | 7.4
CCN(CC)CC(=O)Nn1c(S)nnc1-c1ccc(OC)cc1 | Staphylococcus aureus | 8.33
CCCN(CCC)CC(=O)Nn1c(S)nnc1-c1ccc(OC)cc1 | Staphylococcus aureus | 13.2

# value lookup — system Staphylococcus aureus, readout zone of inhibition at 50 µg/mL, item "CCCCN(C)CC(=O)Nn1c(S)nnc1-c1ccc(C)cc1"
8.23

// repeat for "COc1ccc(-c2nnc(S)n2NC(=O)CN(C(C)C)C(C)C)cc1" and report
9.26

// repeat for "CCCCN(CCCC)CC(=O)Nn1c(S)nnc1-c1ccc(C)cc1" and report
12.1

// repeat for "CCCN(CCC)CC(=O)Nn1c(S)nnc1-c1ccc(C)cc1" and report
9.33

// repeat for "CCCCN(C)CC(=O)Nn1c(S)nnc1-c1ccc(OC)cc1" and report
11

// repeat for "CCCCCN(CCCCC)CC(=O)Nn1c(S)nnc1-c1ccc(OC)cc1" and report
8.13

// repeat for "CCCCCN(CCCCC)CC(=O)Nn1c(S)nnc1-c1ccc(C)cc1" and report
7.1

====

# Test system: Fusarium oxysporum
# procedure summary: Fungicidal activity against Fusarium oxysporum MTCC 2087
# Assay type: functional, organism-based
Calls of active or inactive are those of the source. The calls are words filed in the database; no cut-off is given here.
Your reply should match one of these outcome classes. True for active, False for inactive

mol | label
CCCCN(CCCC)CC(=O)Nn1c(S)nnc1-c1ccc(C)cc1 | True

What did this assay record as the result for "CCCN(CCC)CC(=O)Nn1c(S)nnc1-c1ccc(C)cc1" ?
True

// repeat for "COc1ccc(-c2nnc(S)n2NC(=O)CN(C(C)C)C(C)C)cc1" and report
False

// repeat for "CCCCN(CCCC)CC(=O)Nn1c(S)nnc1-c1ccc(OC)cc1" and report
True

// repeat for "CCCCN(C)CC(=O)Nn1c(S)nnc1-c1ccc(OC)cc1" and report
True

====

# Tested on: Bacillus subtilis
# procedure summary: Bactericidal against Bacillus subtilis ATCC 6633
# Type: functional, organism-based
Calls of active or inactive are those of the source. No cut-off for these calls is given here.
property measured: Activity

mol | Activity
CCN(CC)CC(=O)Nn1c(S)nnc1-c1ccc(OC)cc1 | Active
CCCN(CCC)CC(=O)Nn1c(S)nnc1-c1ccc(OC)cc1 | Active
CCCCCN(CCCCC)CC(=O)Nn1c(S)nnc1-c1ccc(OC)cc1 | Active
CCCN(CCC)CC(=O)Nn1c(S)nnc1-c1ccc(C)cc1 | Active

Read the next record carefully.
Look at this compound and give its reported Activity. "CCCCN(C)CC(=O)Nn1c(S)nnc1-c1ccc(OC)cc1"
Active

====

# System: Aspergillus niger
# procedure summary: Fungicidal activity against Aspergillus niger MTCC 3323
# Format: functional, organism-based
Calls of active or inactive are those of the source. The rule behind the calls is not given here.
Your reply should match one of these outcome classes. true (1) for active, false (0) for inactive

Examples with answers:
mol | label
CCCN(CCC)CC(=O)Nn1c(S)nnc1-c1ccc(OC)cc1 | true (1)
CCCCCN(CCCCC)CC(=O)Nn1c(S)nnc1-c1ccc(OC)cc1 | false (0)
COc1ccc(-c2nnc(S)n2NC(=O)CN(C(C)C)C(C)C)cc1 | false (0)
CCCCN(C)CC(=O)Nn1c(S)nnc1-c1ccc(OC)cc1 | true (1)

Shifting focus to the compound that follows.
What did this assay record as the result for "Cc1ccc(-c2nnc(S)n2NC(=O)CN(C(C)C)C(C)C)cc1" ?
false (0)

====

# Test system: Candida albicans
# procedure summary: Antifungal activity against Candida albicans MTCC 227 at 50 ug/ml by paper disk diffusion method
# Type: functional
# settings: read-out: DIZ
# Lookup of reported zone of inhibition at 50 µg/mL keyed by entry
Just the number in mm, nothing appended.

Look at this compound and give its reported zone of inhibition at 50 µg/mL. "CCCCN(CCCC)CC(=O)Nn1c(S)nnc1-c1ccc(OC)cc1"
18.3

// repeat for "Cc1ccc(-c2nnc(S)n2NC(=O)CN(C(C)C)C(C)C)cc1" and report
9.16

====

# Lookup of reported zone of inhibition at 70 µg/mL keyed by entry
# Test system: Pseudomonas aeruginosa
# procedure summary: Antibacterial activity against Pseudomonas aeruginosa ATCC 27853 at 70 ug/ml after 24 hr by paper disk diffusion method
# Assay type: functional
# settings: ATCC 27853, 24 h, read-out: DIZ
Just the number in mm, nothing appended.

Worked set:
mol | quantitative result
CCCCN(C)CC(=O)Nn1c(S)nnc1-c1ccc(OC)cc1 | 12.2
CCCCN(C)CC(=O)Nn1c(S)nnc1-c1ccc(C)cc1 | 10.3
CCCN(CCC)CC(=O)Nn1c(S)nnc1-c1ccc(OC)cc1 | 14.1
COc1ccc(-c2nnc(S)n2NC(=O)CN(C(C)C)C(C)C)cc1 | 13.3
CCCN(CCC)CC(=O)Nn1c(S)nnc1-c1ccc(C)cc1 | 11.1

Look at this compound and give its reported zone of inhibition at 70 µg/mL. "CCN(CC)CC(=O)Nn1c(S)nnc1-c1ccc(OC)cc1"
10.8

// repeat for "CCCCN(CCCC)CC(=O)Nn1c(S)nnc1-c1ccc(OC)cc1" and report
18.2

// repeat for "CCN(CC)CC(=O)Nn1c(S)nnc1-c1ccc(C)cc1" and report
9

// repeat for "CCCCCN(CCCCC)CC(=O)Nn1c(S)nnc1-c1ccc(C)cc1" and report
9.17

// repeat for "CCCCCN(CCCCC)CC(=O)Nn1c(S)nnc1-c1ccc(OC)cc1" and report
8.1

// repeat for "CCCCN(CCCC)CC(=O)Nn1c(S)nnc1-c1ccc(C)cc1" and report
14.1

// repeat for "Cc1ccc(-c2nnc(S)n2NC(=O)CN(C(C)C)C(C)C)cc1" and report
10.1

====

# Test system: Staphylococcus aureus
# procedure summary: Antibacterial activity against Staphylococcus aureus ATCC 25923 at 70 ug/ml after 24 hr by paper disk diffusion method
# Type: functional
# settings: ATCC 25923, 24 h, read-out: DIZ
# Lookup of reported zone of inhibition at 70 µg/mL keyed by entry
Just the number in mm, nothing appended.

mol | target system | quantitative result
CCCN(CCC)CC(=O)Nn1c(S)nnc1-c1ccc(C)cc1 | Staphylococcus aureus | 10
CCCCN(CCCC)CC(=O)Nn1c(S)nnc1-c1ccc(C)cc1 | Staphylococcus aureus | 14
COc1ccc(-c2nnc(S)n2NC(=O)CN(C(C)C)C(C)C)cc1 | Staphylococcus aureus | 10.3
CCN(CC)CC(=O)Nn1c(S)nnc1-c1ccc(OC)cc1 | Staphylococcus aureus | 9.36
CCCCCN(CCCCC)CC(=O)Nn1c(S)nnc1-c1ccc(OC)cc1 | Staphylococcus aureus | 9.16
CCN(CC)CC(=O)Nn1c(S)nnc1-c1ccc(C)cc1 | Staphylococcus aureus | 8.2
CCCCN(C)CC(=O)Nn1c(S)nnc1-c1ccc(C)cc1 | Staphylococcus aureus | 9.26
CCCCN(C)CC(=O)Nn1c(S)nnc1-c1ccc(OC)cc1 | Staphylococcus aureus | 13.5
CCCN(CCC)CC(=O)Nn1c(S)nnc1-c1ccc(OC)cc1 | Staphylococcus aureus | 14.8
CCCCN(CCCC)CC(=O)Nn1c(S)nnc1-c1ccc(OC)cc1 | Staphylococcus aureus | 17.2

Look at this molecule and give its reported zone of inhibition at 70 µg/mL. "CCCCCN(CCCCC)CC(=O)Nn1c(S)nnc1-c1ccc(C)cc1"
8.16

// repeat for "Cc1ccc(-c2nnc(S)n2NC(=O)CN(C(C)C)C(C)C)cc1" and report
9.1

====

# Tested on: Fusarium oxysporum
# procedure summary: Fungicidal activity against Fusarium oxysporum MTCC 2087
# Format: functional, organism-based
Active and inactive are the calls of the source. No cut-off for these calls is given here.
Your reply should match one of these outcome classes. yes (1) = active, no (0) = inactive

Examples with answers:
mol | label
CCN(CC)CC(=O)Nn1c(S)nnc1-c1ccc(OC)cc1 | no (0)
CCN(CC)CC(=O)Nn1c(S)nnc1-c1ccc(C)cc1 | no (0)
CCCN(CCC)CC(=O)Nn1c(S)nnc1-c1ccc(OC)cc1 | yes (1)
Cc1ccc(-c2nnc(S)n2NC(=O)CN(C(C)C)C(C)C)cc1 | no (0)
CCCCCN(CCCCC)CC(=O)Nn1c(S)nnc1-c1ccc(OC)cc1 | no (0)

Shifting focus to the compound that follows.
What did this assay record as the result for "CCCCCN(CCCCC)CC(=O)Nn1c(S)nnc1-c1ccc(C)cc1" ?
no (0)
